Catalogue of pIC50 readings, one per entry.
target: Rat IL-23R_huFC (rat); experiment: rat ELISA vs IL-23
pIC50: −log10 of the molar value. *1 amine or outer side, *2 acyl side, *3 side chain or, on linkers, in order; H or OH if unused. Bridges are numbered along the chain shown (N, C = ends). Primed or numbered codes have the meaning given here. [ ]: non-standard residue; d: D form. Phe(4-OMe)(3) = O-methyl-L-tyrosine (4-methoxy-L-phenylalanine), COc1ccc(C[C@H](N[*:1])C(=O)[*:2])cc1; Tyr(3-tBu) = CC(C)(C)c1cc(C[C@H](N)C(=O)O)ccc1O; αMeK = C[C@](N)(CCCCN)C(=O)O; Abu = CC[C@H](N)C(=O)O; AEA = NCCOCC(=O)O

Reference set (2 entries):
Ac-[Abu]QTWQC[Phe(4-OMe)(3)][Tyr(3-tBu)][αMeK]ENG-NH2 (thioether 1-6) [Ac-Cyclo-[[Abu]-QTWQC]-[Phe(4-OMe)]-[Tyr(3-tBu)]-[α-MeLys]-ENG-NH2] : 6.00 to 7.00
XQTWQXFXKENG (as bracketed in name; thioether cyclo) [Ac-Cyclo-[[Abu]-QTWQ-[Pen]]-[Phe(4-OMe)]-[2-Nal]-[α-MeLys]-ENG-NH2] : 6.00 to 7.00

Q: Quick one: pIC50 for Ac-CRTWQ[Abu]YWRKFG[AEA][dK]-NH2 (thioether 1-6) [Ac-Cyclo-[CRTWQ-[Abu]]-YWRKFG-[AEA]-[(D)Lys]-NH2] ?
Ans: 6.00 to 7.00

Q: # iterate: XQTWQXFXKKNG (as bracketed in name; thioether cyclo) [Ac-Cyclo-[[Abu]-QTWQ-[Pen]]-[Phe(4-OMe)]-[2-Nal][α-MeLys]-[Lys(Ac)]NG-NH2]
Ans: 6.00 to 7.00
